Recorded pKi by entry
- TESTED_SYSTEM: DDR2 (Homo sapiens, UniProt Q16832)
- Construct: purchased Life Technologies
- Sequence (Q16832 22-855): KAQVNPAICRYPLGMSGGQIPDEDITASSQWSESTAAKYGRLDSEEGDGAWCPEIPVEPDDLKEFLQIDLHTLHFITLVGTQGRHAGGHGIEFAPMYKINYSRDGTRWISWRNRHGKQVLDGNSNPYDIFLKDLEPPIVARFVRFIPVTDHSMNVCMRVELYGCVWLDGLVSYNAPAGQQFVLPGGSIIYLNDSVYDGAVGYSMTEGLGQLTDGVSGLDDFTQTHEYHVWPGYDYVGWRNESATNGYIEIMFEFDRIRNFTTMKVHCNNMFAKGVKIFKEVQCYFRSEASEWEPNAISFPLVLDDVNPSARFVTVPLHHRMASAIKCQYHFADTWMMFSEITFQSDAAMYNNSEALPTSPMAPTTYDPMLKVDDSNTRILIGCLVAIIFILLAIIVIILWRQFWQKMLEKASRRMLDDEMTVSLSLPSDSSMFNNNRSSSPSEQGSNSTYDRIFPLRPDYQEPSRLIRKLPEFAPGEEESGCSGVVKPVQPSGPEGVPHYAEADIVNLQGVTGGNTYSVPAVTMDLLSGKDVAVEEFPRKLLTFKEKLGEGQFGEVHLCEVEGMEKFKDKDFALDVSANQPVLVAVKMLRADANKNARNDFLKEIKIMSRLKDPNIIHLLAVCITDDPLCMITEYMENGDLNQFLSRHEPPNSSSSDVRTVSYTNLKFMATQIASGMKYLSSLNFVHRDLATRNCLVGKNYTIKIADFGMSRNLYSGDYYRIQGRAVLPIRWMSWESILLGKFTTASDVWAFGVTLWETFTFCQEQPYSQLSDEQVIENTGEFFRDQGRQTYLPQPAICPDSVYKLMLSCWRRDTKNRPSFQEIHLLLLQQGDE
- METHOD_DESCRIPTION: LanthaScreen Europium Kinase Binding assay, DDR2
- EXPERIMENTAL_CONTEXT: 5 nM DDR2, 10 nM Kinase Tracer 178, 1 h at rt; Ki from IC50 by Cheng-Prusoff; read-out: Ki DDR2
- Experimental: DDR1 and DDR2 binding assays were performed using Life Technologies LanthaScreen™ Europium Kinase Binding assay. […] IC50 values were determined in GraphPad Prism 7.0 software, using 4 parameter model: log (inhibitor) vs. response. IC50 values were converted in Ki using the Cheng-Prusoff equation (Ki-IC50/(1+ [Tracer]/Kd).
pKi: −log10 of the molar value.

See these solved cases before continuing.
Cn1ccn2ncc(C(=O)N3CC4(CC(OC(=O)Nc5cc(C(F)(F)F)cnn5)C4)C3)c12 | 7.60 to 8.30
COc1ccc(C(F)(F)F)cc1NC(=O)NC1CC2(C1)CN(C(=O)c1cnn3ccn(C)c13)C2 | 7.60 to 8.30
O=C(CC1CC2(C1)CN(C(=O)c1cnc3ccccn13)C2)Nc1cccc(C(F)(F)F)c1 | 7.60 to 8.30
CN(C(=O)Nc1cc(C(F)(F)F)cnn1)C1CC2(C1)CN(C(=O)c1cnn3ccccc13)C2 | 7.00 to 7.60
CN(C(=O)Nc1cncc(C(F)(F)F)c1)C1CC2(C1)CN(c1cnc3[nH]ccc3c1)C2 | 7.00 to 7.60

Item: O=C(Nc1cccc(C(F)(F)F)c1)NC1CC2(C1)CN(C(=O)c1cnn3ccsc13)C2 | pKi: > 8.30

Item: CCc1ccc(C(F)(F)F)cc1NC(=O)N(C)C1CC2(C1)CN(C(=O)c1cnn3ccn(C)c13)C2 | pKi: 7.60 to 8.30

Item: Cc1ccc(OC(F)(F)F)cc1NC(=O)N(C)C1CC2(C1)CN(C(=O)c1ncnc3ccsc13)C2 | pKi: > 8.30

Item: Cc1ccc(OC(F)(F)F)cc1NC(=O)NC1CC2(C1)CN(c1cnc3[nH]ncc3c1)C2 | pKi: 7.00 to 7.60

====

Recorded Ki by entry
- TESTED_SYSTEM: DDR1 (Homo sapiens, UniProt Q08345)
- Construct: purchased Carna Biosciences
- Sequence (Q08345 19-913): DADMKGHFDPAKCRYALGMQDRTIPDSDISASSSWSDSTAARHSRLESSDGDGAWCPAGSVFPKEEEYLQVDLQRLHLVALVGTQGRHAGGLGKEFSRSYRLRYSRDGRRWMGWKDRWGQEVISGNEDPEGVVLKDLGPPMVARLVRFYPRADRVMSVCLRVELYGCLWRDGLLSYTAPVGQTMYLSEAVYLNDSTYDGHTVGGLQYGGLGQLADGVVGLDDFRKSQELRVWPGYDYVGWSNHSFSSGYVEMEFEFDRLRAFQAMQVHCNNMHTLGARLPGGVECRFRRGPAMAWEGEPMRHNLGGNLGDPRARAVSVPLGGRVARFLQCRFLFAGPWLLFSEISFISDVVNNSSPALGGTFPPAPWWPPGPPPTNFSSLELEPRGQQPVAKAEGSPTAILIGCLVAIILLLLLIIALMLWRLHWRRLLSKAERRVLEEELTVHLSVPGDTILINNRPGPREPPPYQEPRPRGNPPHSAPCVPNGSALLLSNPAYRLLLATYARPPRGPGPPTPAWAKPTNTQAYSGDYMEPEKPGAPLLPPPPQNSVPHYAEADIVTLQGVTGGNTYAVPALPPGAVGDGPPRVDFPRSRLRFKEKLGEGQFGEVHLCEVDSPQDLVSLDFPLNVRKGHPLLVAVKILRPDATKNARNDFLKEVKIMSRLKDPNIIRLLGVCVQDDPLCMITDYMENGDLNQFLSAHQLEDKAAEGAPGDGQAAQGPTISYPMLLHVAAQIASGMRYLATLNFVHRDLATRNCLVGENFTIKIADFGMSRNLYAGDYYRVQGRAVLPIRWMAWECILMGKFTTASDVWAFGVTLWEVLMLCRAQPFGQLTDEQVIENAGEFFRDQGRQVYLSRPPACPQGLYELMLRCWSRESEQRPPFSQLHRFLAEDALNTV
- METHOD_DESCRIPTION: LanthaScreen Europium Kinase Binding assay, DDR1
- EXPERIMENTAL_CONTEXT: 5 nM DDR1, 20 nM Kinase Tracer 178, 1 h at rt; Ki from IC50 by Cheng-Prusoff; read-out: Ki DDR1

CN(C(=O)Nc1cc(C(F)(F)F)ccc1Cl)C1CC2(C1)CN(C(=O)c1ncnc3[nH]ccc13)C2 | < 5 nM
CN(C(=O)Nc1cccc(CC(F)(F)F)c1)C1CC2(C1)CN(C(=O)c1cnn3ccn(C)c13)C2 | < 5 nM
CN(C(=O)Nc1cncc(OC(F)(F)F)c1)C1CC2(C1)CN(C(=O)c1cnn3ccsc13)C2 | < 5 nM
COc1cc(C(F)(F)F)cc(NC(=O)N(C)C2CC3(C2)CN(C(=O)c2cnn4ccn(C)c24)C3)n1 | < 5 nM
O=C(Nc1cccc(C(F)(F)F)c1)NC1CC2(C1)CN(C(=O)c1ncnc3ccsc13)C2 | < 5 nM

Item: CN(C(=O)Nc1cc(C(F)(F)F)cs1)C1CC2(C1)CN(C(=O)c1cnn3ccn(C)c13)C2 | Ki: < 5 nM

Item: Cn1ccn2ncc(C(=O)N3CC4(CC(OC(=O)Nc5cc(C(C)(C)C(F)(F)F)on5)C4)C3)c12 | Ki: < 5 nM

Item: CN(C(=O)Nc1cc(OC(F)(F)F)ccc1F)C1CC2(C1)CN(C(=O)c1cnn3ccn(C)c13)C2 | Ki: < 5 nM

Item: Cn1ccn2ncc(C(=O)N3CC4(CC(NC(=O)Nc5cc(C(F)(F)F)ccc5OC5COC5)C4)C3)c12 | Ki: < 5 nM

Item: Cn1ccn2ncc(C(=O)N3CC4(CC(NC(=O)Nc5cccc(C(F)F)c5)C4)C3)c12 | Ki: < 5 nM

====

- TESTED_SYSTEM: DDR2 (Homo sapiens)
- Construct: purchased Life Technologies
- METHOD_DESCRIPTION: LanthaScreen Europium Kinase Binding assay, DDR2
- EXPERIMENTAL_CONTEXT: 5 nM DDR2, 10 nM Kinase Tracer 178, 1 h at rt; Ki from IC50 by Cheng-Prusoff; read-out: Ki DDR2
MEASURED_PARAMETER: Ki

See these solved cases before continuing.
CN(C(=O)Nc1cc(Cl)cc(C(F)(F)F)c1)C1CC2(C1)CN(C(=O)c1ncnc3[nH]ccc13)C2 [Example 286] | 5 to 25 nM
CN(C(=O)Nc1cncc(SC(F)(F)F)c1)C1CC2(C1)CN(C(=O)c1cnn3ccn(C)c13)C2 [Example 207] | 5 to 25 nM
O=C(Nc1cc(C(F)(F)F)ccn1)NC1CC2(C1)CN(C(=O)c1ccnc3[nH]ncc13)C2 [Example 145] | 5 to 25 nM
Cn1ccn2ncc(C(=O)N3CC4(CC(NC(=O)Nc5ccc(F)c(OC(F)(F)F)c5)C4)C3)c12 [Example 118] | < 5 nM
O=C(Nc1cccc(C(F)(F)F)c1)NC1CC2(C1)CN(C(=O)c1ccnc3[nH]ccc13)C2 [Example 115] | 5 to 25 nM

Item: O=C(Nc1cccc(C(F)(F)F)c1)NC1CC2(C1)CN(C(=O)c1cnc3n1CCOC3)C2 [Example 6] | Ki: 5 to 25 nM

Item: Cc1ncc(NC(=O)N(C)C2CC3(C2)CN(C(=O)c2cnn4ccn(C)c24)C3)cc1C(F)(F)F [Example 180] | Ki: 5 to 25 nM

Item: CN(C(=O)Nc1cc(C(F)(F)F)ccn1)C1CC2(C1)CN(C(=O)c1cnn3ccccc13)C2 [Example 238] | Ki: 5 to 25 nM

Item: CN(C(=O)Nc1cc(F)cc(C(F)(F)F)c1)C1CC2(C1)CN(C(=O)c1cnn3ccn(C)c13)C2 [Example 64] | Ki: 5 to 25 nM

Item: CN(C(=O)Nc1cc(OC(F)(F)F)ccc1F)C1CC2(C1)CN(C(=O)c1cnn3ccn(C)c13)C2 [Example 132] | Ki: 5 to 25 nM

Item: COc1ccc(C(F)(F)F)cc1NC(=O)N(C)C1CC2(C1)CN(C(=O)c1ncnc3[nH]ccc13)C2 [Example 260] | Ki: 5 to 25 nM

Item: CN(C(=O)Nc1cc(C(F)(F)F)cc(C(F)(F)F)c1)C1CC2(C1)CN(C(=O)c1cnn3ccn(C)c13)C2 [Example 257] | Ki: 5 to 25 nM

====

- TESTED_SYSTEM: DDR2 (Homo sapiens)
- Construct: purchased Life Technologies
- METHOD_DESCRIPTION: LanthaScreen Europium Kinase Binding assay, DDR2
- EXPERIMENTAL_CONTEXT: 5 nM DDR2, 10 nM Kinase Tracer 178, 1 h at rt; Ki from IC50 by Cheng-Prusoff; read-out: Ki DDR2
pKi: −log10 of the molar value.
MEASURED_PARAMETER: pKi

See these solved cases before continuing.
O=C(Nc1cc(OC(F)(F)F)ccn1)NC1CC2(C1)CN(C(=O)c1ncnc3ccsc13)C2 [Example 101] | > 8.30
CC(C)(c1cc(NC(=O)OC2CC3(C2)CN(C(=O)c2cnn4ccsc24)C3)no1)C(F)(F)F [Example 293] | > 8.30

Entry COc1cc(C(F)(F)F)cc(NC(=O)N(C)C2CC3(C2)CN(C(=O)c2cnn4ccn(C)c24)C3)n1 [Example 256] , DDR2 (Homo sapiens) data, pKi value: 7.60 to 8.30

Entry CN(C(=O)Nc1cccc(C(F)(F)C(F)(F)F)c1)C1CC2(C1)CN(C(=O)c1cnn3ccn(C)c13)C2 [Example 117] , DDR2 (Homo sapiens) data, pKi value: > 8.30

Entry COc1ccc(OC(F)(F)F)cc1NC(=O)NC1CC2(C1)CN(C(=O)c1cnn3ccccc13)C2 [Example 68] , DDR2 (Homo sapiens) data, pKi value: 7.60 to 8.30

Entry CN(C(=O)Nc1cc(C(F)(F)F)cnn1)C1CC2(C1)CN(C(=O)c1cnn3ccsc13)C2 [Example 228] , DDR2 (Homo sapiens) data, pKi value: 7.00 to 7.60

Entry O=C(Nc1cccc(C(F)(F)F)c1)NC1CC2(C1)CN(C(=O)c1cnn3ccn(C4COC4)c13)C2 [Example 167] , DDR2 (Homo sapiens) data, pKi value: 7.60 to 8.30

Entry COc1ccc(OC(F)(F)F)cc1NC(=O)N(C)C1CC2(C1)CN(C(=O)c1cnn3ccn(C)c13)C2 [Example 52] , DDR2 (Homo sapiens) data, pKi value: 7.60 to 8.30
